Hey, just so you know, these numbers are from the RNAGym collection of RNA variant scans (doi:10.1126/science.aae0568).

B1: tRNA (parent)
chain: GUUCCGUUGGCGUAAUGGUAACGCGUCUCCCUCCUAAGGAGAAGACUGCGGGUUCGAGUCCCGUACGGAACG

variants of: B1; experiment: yeast fitness relative to wild type (ratio to wild type); higher = fitter; tRNA-Arg(CCU), competitive growth, 37 C, YPD
Variants at the floor of the assay were thinned out.
READOUT_NAME: yeast fitness

Some solved cases for reference:
Form: variant = C24G C27U A40U U59C ; yeast fitness = ≤ 0.5

Form: variant = G6A A14C A42U G63C ; yeast fitness = ≤ 0.5

Form: variant = G44C C62U ; yeast fitness = 0.902

Form: variant = U26A G48A C62A ; yeast fitness = 0.605

Form: variant = G6C C11G C27U A42G C66U ; yeast fitness = 0.552

Further cases:
Form: variant = C5A C33U G39C C55A G67C ; yeast fitness = ≤ 0.5

Form: variant = C4U U19A A42C ; yeast fitness = 0.825

Form: variant = C22G U59A A69G ; yeast fitness = ≤ 0.5

Form: variant = A14G A42U G68C ; yeast fitness = ≤ 0.5

Form: variant = C31U A42U C62A ; yeast fitness = 0.615

Form: variant = G12A G51A ; yeast fitness = 0.883

Form: variant = U19G C24A C34G ; yeast fitness = 0.75
